Ref: patent EP2905286A1

- assay name: Solubility observed during preparation
- Type: physicochemical
- applied conditions: DMF

# compound structure string, solubility in DMF
records = [
    ("C1NCC2CNCC1C2.O=C1[O][Pt][O]C(=O)C12CCC2", "poor"),
]
